Target: T1, Lsb1, P53281
T1 sequence (P53281 45-122, looked up): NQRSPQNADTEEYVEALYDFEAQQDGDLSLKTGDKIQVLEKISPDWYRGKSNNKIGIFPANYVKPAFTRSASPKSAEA
Assay: SPOT array
Conditions: median of control spots 388
What SPOT intensity was measured for each of the following?
Reply briefly: the number, and no unit.

Query :: Form field: reported SPOT intensity of NLKKRPPTAPQRKIS
Result :: 8

Query :: Form field: reported SPOT intensity of EVTPKVPERPSRRKT
Result :: 824

Query :: Form field: reported SPOT intensity of YLTRPLPSTPNEDSR
Result :: 8

Query :: Form field: reported SPOT intensity of PLRRTVMSLPGNHDI
Result :: 75

Query :: Form field: reported SPOT intensity of PLQSKIPMLPSRRTM
Result :: 396

Query :: Form field: reported SPOT intensity of GSKSGPPPRPKKPST
Result :: 0

Query :: Form field: reported SPOT intensity of NFFRKKLGIPRKLKR
Result :: 234

Query :: Form field: reported SPOT intensity of ISNFVPPNLPMRRFK
Result :: 63

// data source = paper PMC2756588
